targetOrTestSystem: Nucleotide-binding oligomerization domain-containing protein 1 (Homo sapiens) (UniProt Q9Y239)
Sequence (whole entry): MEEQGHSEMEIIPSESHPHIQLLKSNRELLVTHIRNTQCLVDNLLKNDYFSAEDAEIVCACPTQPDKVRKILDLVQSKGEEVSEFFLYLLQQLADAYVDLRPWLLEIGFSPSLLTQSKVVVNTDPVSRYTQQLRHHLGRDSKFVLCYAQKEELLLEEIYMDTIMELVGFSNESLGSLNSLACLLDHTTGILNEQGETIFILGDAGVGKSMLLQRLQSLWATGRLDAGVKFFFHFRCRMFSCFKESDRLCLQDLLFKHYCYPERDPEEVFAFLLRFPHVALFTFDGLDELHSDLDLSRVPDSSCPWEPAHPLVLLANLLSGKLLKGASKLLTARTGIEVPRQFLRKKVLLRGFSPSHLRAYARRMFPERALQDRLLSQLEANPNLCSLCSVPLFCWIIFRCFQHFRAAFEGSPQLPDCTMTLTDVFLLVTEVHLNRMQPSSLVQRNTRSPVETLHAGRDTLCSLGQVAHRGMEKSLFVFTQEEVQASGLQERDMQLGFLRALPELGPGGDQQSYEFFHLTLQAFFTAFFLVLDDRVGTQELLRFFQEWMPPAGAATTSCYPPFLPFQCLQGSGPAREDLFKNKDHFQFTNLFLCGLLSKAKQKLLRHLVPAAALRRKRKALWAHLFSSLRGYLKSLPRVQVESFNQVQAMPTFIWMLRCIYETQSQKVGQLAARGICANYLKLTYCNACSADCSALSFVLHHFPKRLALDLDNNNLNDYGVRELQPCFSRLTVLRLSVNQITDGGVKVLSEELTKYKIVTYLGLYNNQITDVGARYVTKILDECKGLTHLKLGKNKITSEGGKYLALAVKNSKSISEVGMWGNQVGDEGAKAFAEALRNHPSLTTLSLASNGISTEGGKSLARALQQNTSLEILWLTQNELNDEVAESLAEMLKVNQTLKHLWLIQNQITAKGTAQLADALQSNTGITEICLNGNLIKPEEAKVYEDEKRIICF
experimentalDetails: Antagonist activity at NOD1 (unknown origin)
Calls of active or inactive are those of the source. No cut-off for these calls is given here.
observable: inhibition

[
  {
    "chemicalStructure": "Nc1nc2ccccc2c2oc(-c3ccccc3)cc12",
    "observable": "inhibition",
    "val": "inactive"
  },
  {
    "chemicalStructure": "CCCCc1cc2c(nc(N)c3ccccc32)o1",
    "observable": "inhibition",
    "val": "inactive"
  },
  {
    "chemicalStructure": "CCCc1cc2c(N)nc3ccccc3c2o1",
    "observable": "inhibition",
    "val": "inactive"
  },
  {
    "chemicalStructure": "CCCCc1cc2c(N)nc3ccccc3c2o1",
    "observable": "inhibition",
    "val": "inactive"
  }
]

All figures here come from ChEMBL document CHEMBL2417394.
